# pIC50 per entry
TARGET DESC: calcium channel (Oryctolagus cuniculus)
Construct: from tissue; host or cells: rabbit heart membrane preparation
Sequence (P15381 whole entry, other chains not shown): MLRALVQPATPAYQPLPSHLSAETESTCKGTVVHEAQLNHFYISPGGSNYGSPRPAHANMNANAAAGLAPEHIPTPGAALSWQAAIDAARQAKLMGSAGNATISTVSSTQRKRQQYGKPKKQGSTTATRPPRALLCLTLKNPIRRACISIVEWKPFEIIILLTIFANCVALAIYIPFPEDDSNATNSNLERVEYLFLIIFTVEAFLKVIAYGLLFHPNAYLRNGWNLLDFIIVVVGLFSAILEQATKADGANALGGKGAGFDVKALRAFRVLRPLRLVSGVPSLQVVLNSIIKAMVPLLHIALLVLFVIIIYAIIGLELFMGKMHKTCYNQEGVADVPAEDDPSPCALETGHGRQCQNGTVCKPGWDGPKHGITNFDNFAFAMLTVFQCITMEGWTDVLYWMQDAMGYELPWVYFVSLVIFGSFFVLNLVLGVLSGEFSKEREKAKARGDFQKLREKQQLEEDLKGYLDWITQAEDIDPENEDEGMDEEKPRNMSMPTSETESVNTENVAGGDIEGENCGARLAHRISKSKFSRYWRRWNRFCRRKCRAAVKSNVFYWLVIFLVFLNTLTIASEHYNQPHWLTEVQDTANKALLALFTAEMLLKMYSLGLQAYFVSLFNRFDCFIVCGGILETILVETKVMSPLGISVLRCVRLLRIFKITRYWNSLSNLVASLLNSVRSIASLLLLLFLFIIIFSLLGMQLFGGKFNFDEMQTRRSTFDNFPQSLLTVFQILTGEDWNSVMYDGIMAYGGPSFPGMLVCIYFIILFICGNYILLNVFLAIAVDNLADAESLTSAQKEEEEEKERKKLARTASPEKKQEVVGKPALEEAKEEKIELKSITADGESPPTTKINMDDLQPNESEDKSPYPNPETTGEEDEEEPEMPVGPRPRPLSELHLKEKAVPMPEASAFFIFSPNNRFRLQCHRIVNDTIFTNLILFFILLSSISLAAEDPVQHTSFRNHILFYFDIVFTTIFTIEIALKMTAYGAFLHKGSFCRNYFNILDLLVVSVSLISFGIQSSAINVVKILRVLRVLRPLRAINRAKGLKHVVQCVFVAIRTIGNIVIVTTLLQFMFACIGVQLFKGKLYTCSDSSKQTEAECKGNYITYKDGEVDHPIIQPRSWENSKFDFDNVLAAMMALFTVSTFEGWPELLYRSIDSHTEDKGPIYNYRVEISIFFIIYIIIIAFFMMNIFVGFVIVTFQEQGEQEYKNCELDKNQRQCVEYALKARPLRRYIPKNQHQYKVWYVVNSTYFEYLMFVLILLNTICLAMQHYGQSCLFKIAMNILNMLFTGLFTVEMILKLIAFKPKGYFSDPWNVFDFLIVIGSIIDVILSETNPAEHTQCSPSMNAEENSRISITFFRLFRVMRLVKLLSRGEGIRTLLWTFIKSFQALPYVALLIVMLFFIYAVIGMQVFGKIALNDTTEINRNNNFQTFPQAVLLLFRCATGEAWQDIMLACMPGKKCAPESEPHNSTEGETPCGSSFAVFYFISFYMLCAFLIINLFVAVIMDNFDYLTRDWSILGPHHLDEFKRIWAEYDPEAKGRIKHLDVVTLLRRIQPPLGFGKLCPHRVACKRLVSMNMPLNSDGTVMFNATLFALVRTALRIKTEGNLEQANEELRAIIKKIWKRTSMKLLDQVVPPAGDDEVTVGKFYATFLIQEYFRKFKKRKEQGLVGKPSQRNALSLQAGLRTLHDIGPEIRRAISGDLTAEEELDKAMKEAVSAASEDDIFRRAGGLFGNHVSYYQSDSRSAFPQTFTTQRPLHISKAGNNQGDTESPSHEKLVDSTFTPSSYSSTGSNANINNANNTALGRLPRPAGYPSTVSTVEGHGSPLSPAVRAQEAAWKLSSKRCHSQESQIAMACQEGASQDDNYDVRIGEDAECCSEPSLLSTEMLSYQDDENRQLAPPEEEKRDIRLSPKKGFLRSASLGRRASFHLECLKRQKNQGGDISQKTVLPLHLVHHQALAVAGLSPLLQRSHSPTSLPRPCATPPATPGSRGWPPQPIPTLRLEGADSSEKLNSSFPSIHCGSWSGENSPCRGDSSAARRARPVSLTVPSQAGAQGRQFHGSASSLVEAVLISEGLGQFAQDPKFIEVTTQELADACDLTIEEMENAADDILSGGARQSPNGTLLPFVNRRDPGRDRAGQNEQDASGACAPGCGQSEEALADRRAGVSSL
Sequence (P13806 27-960 partner limits assumed, other chains not shown): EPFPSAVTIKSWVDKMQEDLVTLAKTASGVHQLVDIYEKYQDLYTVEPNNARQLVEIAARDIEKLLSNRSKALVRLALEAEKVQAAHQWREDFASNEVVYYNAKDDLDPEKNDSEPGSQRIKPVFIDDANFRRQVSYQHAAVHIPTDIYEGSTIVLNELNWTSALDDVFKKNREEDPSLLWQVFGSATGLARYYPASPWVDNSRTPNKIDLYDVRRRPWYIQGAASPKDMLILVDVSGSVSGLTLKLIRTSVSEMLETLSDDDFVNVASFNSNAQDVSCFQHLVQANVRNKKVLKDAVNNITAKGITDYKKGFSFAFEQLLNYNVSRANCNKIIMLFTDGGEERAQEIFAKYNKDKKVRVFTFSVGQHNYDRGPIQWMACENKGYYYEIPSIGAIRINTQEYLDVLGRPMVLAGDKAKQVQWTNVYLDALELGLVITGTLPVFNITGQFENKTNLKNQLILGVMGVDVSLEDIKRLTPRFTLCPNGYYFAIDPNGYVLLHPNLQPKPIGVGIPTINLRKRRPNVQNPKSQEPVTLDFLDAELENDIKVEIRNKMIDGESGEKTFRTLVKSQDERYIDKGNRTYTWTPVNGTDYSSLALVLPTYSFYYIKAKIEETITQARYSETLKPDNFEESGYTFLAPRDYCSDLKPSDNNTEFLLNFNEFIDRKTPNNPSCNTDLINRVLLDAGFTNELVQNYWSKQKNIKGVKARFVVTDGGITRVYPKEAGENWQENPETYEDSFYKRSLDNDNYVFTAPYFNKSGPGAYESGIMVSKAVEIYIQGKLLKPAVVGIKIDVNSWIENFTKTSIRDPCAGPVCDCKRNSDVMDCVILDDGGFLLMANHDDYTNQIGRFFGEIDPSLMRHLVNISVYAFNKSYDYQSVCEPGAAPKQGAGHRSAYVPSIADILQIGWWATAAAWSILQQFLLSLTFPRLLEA
Sequence (P13806 961-1106 partner limits assumed, other chains not shown): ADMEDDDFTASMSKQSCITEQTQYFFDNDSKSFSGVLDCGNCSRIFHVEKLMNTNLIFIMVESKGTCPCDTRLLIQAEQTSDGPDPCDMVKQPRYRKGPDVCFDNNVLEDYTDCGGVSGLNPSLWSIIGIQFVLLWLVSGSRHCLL
ASSAY REMARKS: Assay for Inhibition of Nitrendipine Binding (3H-nitrendipine, heart membranes)
TEST CONTEXT: 3H-nitrendipine displacement, rabbit heart membranes; Tables 1-5
Scale explanation: pIC50 corresponds to minus log10 of a concentration expressed in moles per litre.

CC1=C(C(=O)OCCN(C)Cc2ccccc2)C(c2cccc([N+](=O)[O-])c2)C2=C(CS(=O)(=O)CCS2(=O)=O)N1 (stereo not shown) [Compound 8] : 7.37
CC1=C(C(=O)OCCN(C)Cc2ccccc2)C(c2ccccc2Cl)C2=C(CS(=O)(=O)CS2(=O)=O)N1 (stereo not shown) [Compound 32] : 7.41
COC(=O)C1=C(C)NC2=C(C1c1c(F)cccc1Cl)S(=O)(=O)CCS(=O)(=O)C2 (stereo not shown) [Compound 11] : 7.04
CC1=C(C(=O)OCCN(C)Cc2ccccc2)C(c2ccccc2Cl)C2=C(CS(=O)(=O)CCCS2(=O)=O)N1 (stereo not shown) [Compound 29] : 7.24
COC(=O)C1=C(C)NC2=C(C1c1ccccc1F)S(=O)(=O)CCS(=O)(=O)C2 (stereo not shown) [Compound 16] : 6.58

query: Fill in the recorded pIC50 for this compound, with calcium channel (Oryctolagus cuniculus) as test system: COC(=O)C1=C(C)NC2=C(C1c1c(F)c(F)c(F)c(F)c1F)S(=O)(=O)CCS(=O)(=O)C2 (stereo not shown) [Compound 13]
result: 7.57

query: Follow-up item: CC1=C(C(=O)OCCN(C)Cc2ccccc2)C(c2cccc(C(F)(F)F)c2F)C2=C(CS(=O)(=O)C(CO)CS2(=O)=O)N1 (stereo not shown) [Compound 23]
result: 6.67
